Tgt: Luciferin 4-monooxygenase (Photinus pyralis) (UniProt P08659)
Sequence (P08659 whole entry, looked up): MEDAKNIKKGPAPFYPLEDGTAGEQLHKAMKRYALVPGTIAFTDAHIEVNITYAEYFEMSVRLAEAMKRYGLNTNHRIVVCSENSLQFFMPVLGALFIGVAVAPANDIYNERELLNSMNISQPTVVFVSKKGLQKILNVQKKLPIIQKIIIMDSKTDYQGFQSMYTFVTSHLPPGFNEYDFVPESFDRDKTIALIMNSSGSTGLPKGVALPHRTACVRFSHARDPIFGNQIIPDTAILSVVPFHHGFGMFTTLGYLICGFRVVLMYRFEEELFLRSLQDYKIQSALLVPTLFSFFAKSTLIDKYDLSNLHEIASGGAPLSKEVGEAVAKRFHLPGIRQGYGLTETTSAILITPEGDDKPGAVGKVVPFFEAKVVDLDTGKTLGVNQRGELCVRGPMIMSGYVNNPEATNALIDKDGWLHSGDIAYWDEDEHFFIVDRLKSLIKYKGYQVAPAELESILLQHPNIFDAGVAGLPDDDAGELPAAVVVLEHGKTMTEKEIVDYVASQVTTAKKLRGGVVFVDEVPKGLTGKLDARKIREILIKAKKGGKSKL
Assay overview: CCTE_Simmons_QuantiLum_inhib_2: CCTE's Firefly Luciferase Inhibition Assay, Simmons Lab (AID 2283767)
Inconclusive results are not listed. Activity calls are given as the source filed them. How the source made its calls: active means hit-call score of the fitted dose curve at least 0.9, where 1 is the maximum; inconclusive means response in the unintended direction; inactive means score below 0.9.
Classes used: active, inactive

[CH3][Hg][Cl] :: active
O=C=Nc1ccccc1 :: inactive
O=C(CCl)c1ccccc1 :: inactive
c1ccc2cc3c(cc2c1)-c1cccc2cccc-3c12 :: inactive
COc1cc(OC)nc(Oc2cccc(Oc3nc(OC)cc(OC)n3)c2C(=O)O)n1 :: inactive
Nc1ccccc1 :: inactive
CC(C)c1ccc(O)cc1 :: inactive
CCOC(=O)NC(=S)Nc1ccccc1NC(=S)NC(=O)OCC :: inactive
Nc1cc(Cl)cc(Cl)c1 :: inactive
CC(C)(c1cc(Cl)c(O)c(Cl)c1)c1cc(Cl)c(O)c(Cl)c1 :: inactive
c1ccc(P(c2ccccc2)c2ccccc2)cc1 :: inactive

----------
# AC50 listing for each entry below
Tgt: human Dopamine Transporter (DAT), SLC6A3 (gene 6531) (UniProt Q01959)
Sequence (Q01959 whole entry, looked up): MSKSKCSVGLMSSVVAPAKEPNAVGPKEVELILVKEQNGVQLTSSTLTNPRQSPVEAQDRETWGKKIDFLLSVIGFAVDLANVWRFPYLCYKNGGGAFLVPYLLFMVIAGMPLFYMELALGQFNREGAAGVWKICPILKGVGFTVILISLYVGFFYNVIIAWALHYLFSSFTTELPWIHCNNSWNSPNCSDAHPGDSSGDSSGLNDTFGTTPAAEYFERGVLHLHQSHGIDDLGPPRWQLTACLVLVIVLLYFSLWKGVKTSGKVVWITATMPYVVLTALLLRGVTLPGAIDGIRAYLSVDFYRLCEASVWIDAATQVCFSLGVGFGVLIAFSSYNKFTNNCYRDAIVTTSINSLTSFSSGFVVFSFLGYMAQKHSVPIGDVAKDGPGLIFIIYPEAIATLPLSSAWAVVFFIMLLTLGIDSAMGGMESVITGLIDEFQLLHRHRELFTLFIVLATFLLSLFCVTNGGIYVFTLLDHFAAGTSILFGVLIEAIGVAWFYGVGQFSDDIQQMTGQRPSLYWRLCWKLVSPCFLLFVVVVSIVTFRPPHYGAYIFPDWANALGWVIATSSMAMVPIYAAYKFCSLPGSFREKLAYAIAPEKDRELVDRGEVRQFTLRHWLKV
Assay overview: NVS_TR_hDAT: NovaScreen (NVS) Transporter Assay for human Dopamine Transporter (DAT) (AID 2283374);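 further: activity means loss of bound radioligand signal relative to DMSO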
Description: NVS_TR_hDAT is a biochemical, single-readout assay that uses extracted gene-proteins in a cell-free assay. Measurements were taken 1 hour after chemical dosing in a 96-well plate.NVS_TR_hDAT is one of one assay component(s) measured or calculated from the NVS_TR_hDAT assay. […] This assay endpoint, NVS_TR_hDAT, was analyzed in the positive analysis fitting direction relative to DMSO as the negative control and baseline of activity. […]
Results filed as inconclusive are left out. Activity calls are given as the source filed them. Rule for the calls: active = hit-call score of the fitted dose curve at least 0.9, where 1 is the maximum; inconclusive = response in the unintended direction; inactive = score below 0.9.
Endpoint: AC50

c1ccc(Nc2ccc3ccccc3c2)cc1 :: 13 µM (active)
CC1(C)[C@H](C(=O)O[C@H](C#N)c2cccc(Oc3ccccc3)c2)[C@@H]1C=C(Br)Br :: 7.41 µM (active)
CC(C)(C)C(O)C(Oc1ccc(-c2ccccc2)cc1)n1cncn1 (centres undefined) :: 13.4 µM (active)
C[C@]12CC[C@H](O)C[C@H]1CC[C@@H]1[C@@H]2C[C@@H](O)[C@]2(C)[C@@H](C3=CC(=O)OC3)CC[C@]12O :: 40.9 µM (active)

----------
Assay overview: CCTE_Mundy_HCI_Cortical_Synap_Neur_Matur_SynapseCount: CCTE's Synaptogenesis and Neurite Maturation Assay in rat cortical cells for Synapse Count, Mundy Lab (AID 2284218)
Active and inactive are the calls of the source. How the source made its calls: active means hit-call score of the fitted dose curve at least 0.9, where 1 is the maximum; inactive means score below 0.9.
Classes used: YES = active, NO = inactive

CN1C(=O)CN=C(c2ccccc2)c2cc(Cl)ccc21 :: NO
O=[As]O :: YES
CC1(C)[C@@H](C=C(Cl)Cl)[C@@H]1C(=O)O[C@@H](C#N)c1ccc(F)c(Oc2ccccc2)c1 :: NO
C=CCN1CC[C@]23c4c5ccc(O)c4O[C@H]2C(=O)CC[C@@]3(O)[C@H]1C5 :: NO
CC1(C)C(C=C(Cl)Cl)C1C(=O)O[C@H](C#N)c1cccc(Oc2ccccc2)c1 (stereo partly specified) :: YES
Cc1ccc(OP(=O)(Oc2ccc(C)cc2)Oc2ccc(C)cc2)cc1 (tested in a mixture with another compound) :: YES

----------
Read-out: Matrix Metallopeptidase 1 (MMP1), MMP1 (gene 4312)
Assay overview: BSK_hDFCGF_MMP1: BioMAP Diversity Plus: hDFCGF Assay for Matrix Metallopeptidase 1 (MMP1) Biomarker Activity (AID 2283064)
Conditions used: primary human foreskin fibroblasts; actives raise or lower the signal
The source made the active and inactive calls. How the source made its calls: active means hit-call score of the fitted dose curve at least 0.9, where 1 is the maximum; inactive means score below 0.9.
Endpoint: AC50

CCC(C)c1cc([N+](=O)[O-])cc([N+](=O)[O-])c1OC(=O)C=C(C)C (stereo unspecified) :: 12.3 µM (active)
Clc1ccc(-c2ccccc2)cc1 :: inactive
CC(C)(c1cc(Cl)c(O)c(Cl)c1)c1cc(Cl)c(O)c(Cl)c1 :: 11.1 µM (active)
CC(C)(C)C(=O)CCl :: inactive
O=c1[nH]c(Cl)c(Cl)cc1Cl :: inactive
Cc1ccc(OP(=O)(Oc2ccc(C)cc2)Oc2ccc(C)cc2)cc1 (tested in a mixture with another compound) :: inactive
CC(=O)/C=C/c1ccccc1 :: inactive
CC(C)(C)C(O)C(Oc1ccc(-c2ccccc2)cc1)n1cncn1 (stereo unspecified) :: inactive
O=C(CCl)c1ccccc1 :: 9.79 µM (active)
CC(C)CCCCCCCOC(=O)c1ccccc1C(=O)OCCCCCCCC(C)C :: inactive
COCC(=O)N(c1c(C)cccc1C)N1CCOC1=O :: inactive
O=C(O)CCCc1ccc(N(CCCl)CCCl)cc1 :: inactive
CC(C)COP(=O)(OCC(C)C)OCC(C)C :: inactive
O=P1(NCCCl)OCCCN1CCCl (stereo unspecified) :: inactive
CC(C)CCCCCCCOP(=O)(Oc1ccccc1)Oc1ccccc1 :: 20 µM (active)
N#CCCCCC#N :: inactive
